Test system: OVCAR-4 ovarian
Test: NCI tumour cell line growth inhibition, 48 h
PROPERTY LABEL: TGI

| COMPOUND | MEASUREMENT TARGET | PROPERTY LABEL | RESULT |
| --- | --- | --- | --- |
| CS(=O)(=O)Oc1cccc(/C=N/N=C(\N)NO)c1 | OVCAR-4 ovarian | TGI | > 100 µM |
| CN(CCO)c1nc2c(c(=O)[nH]1)CCC2 | OVCAR-4 ovarian | TGI | > 100 µM |
| O=C(c1ccccc1)c1ccc(COc2ccc(C(c3c(O)c4ccccc4oc3=O)c3c(O)c4ccccc4oc3=O)cc2)cc1 | OVCAR-4 ovarian | TGI | 73 µM |
| CC12Nc3ccccc3N1C(=O)c1ccccc12 (configuration not stated) | OVCAR-4 ovarian | TGI | > 100 µM |
| COc1cc2c(cc1OCCCCOc1cc3c(cc1OC)C(=O)N1CCC[C@H]1CN3)N=C[C@@H]1CCCN1C2=O | OVCAR-4 ovarian | TGI | > 100 µM |
| C/C=C/[P+](c1ccccc1)(c1ccccc1)c1ccccc1 | OVCAR-4 ovarian | TGI | 25.4 µM |
| c1ccc2c(C3NCCc4[nH]cnc43)cccc2c1 (configuration not stated) | OVCAR-4 ovarian | TGI | > 100 µM |
| O=C1C(=O)c2c(nc3ccc(Cl)cn23)-c2ccccc21 | OVCAR-4 ovarian | TGI | 0.463 µM |
| O=C(NCCCCCCCCNC(=O)c1cc(-c2ccccc2)nc2ccccc12)c1cc(-c2ccccc2)nc2ccccc12 | OVCAR-4 ovarian | TGI | > 100 µM |
| COC(=O)C1CCC(=O)N1CN(C(C)=O)c1ccccc1 (configuration not stated) | OVCAR-4 ovarian | TGI | > 100 µM |
| CCOC1(COP(=O)(OCc2ccccc2)OCc2ccccc2)COC(COP(=O)(OCc2ccccc2)OCc2ccccc2)(OCC)CO1 (configuration not stated) | OVCAR-4 ovarian | TGI | > 100 µM |
| Cc1ccc(-c2nc3ccc(Cl)cc3[nH]2)cc1 | OVCAR-4 ovarian | TGI | > 100 µM |

---

Tested on: SN12C renal
Assay: NCI tumour cell line growth inhibition, 48 h
TGI values by entry

| COMPOUND | TGI |
| --- | --- |
| CC12CCC(C(=O)OC1=O)C(C)(C)O2 (stereo not drawn) | > 100 µM |
| CCN(C(=O)N1CCN(c2cc3c(cc2F)c(=O)c(C(=O)O)cn3C2CC2)CC1)c1nc(-c2ccc(C)cc2)cs1 | > 100 µM |
| COc1ccc2[nH]c3c(c2c1)CCn1c-3nc2ccccc2c1=O | > 25 µM |
| COc1ccc(NC2Oc3cc4c(cc3C(c3cccc(OC)c3OC)C2C)OCO4)cc1 (stereo not drawn) | > 100 µM |
| Cc1ccc(Oc2ccc(C)cc2[N+](=O)[O-])cc1 | > 100 µM |
| C=Cc1c(C)c(OC)cc2c1Oc1ccc(OC)c(C)c1CC2 | > 100 µM |
| CCOC(=O)C1=C(O)C(=O)c2ccsc2C1=O | > 100 µM |
| NNC(=O)c1ccc(-n2nnc(C(=O)NN)c2C(=O)NN)cc1 | > 100 µM |
| C=C1CC[C@@H]2[C@](C)(COC(C)=O)[C@@H](O)CC[C@@]2(C)[C@@H]1COc1ccc2ccc(=O)oc2c1 | > 100 µM |
| O=c1oc2ccccc2c2c(=O)c3ccc(OC/C(=N/O)c4ccc(Cl)cc4)cc3oc12 | 51.2 µM |
| COc1cc2c(c(OC)c1OC)C(=O)[C@H](O)[C@H]2NC(N)=O | > 100 µM |
| CN(C)CCCN1c2ccccc2CCc2ccc(Cl)cc21 | 16.3 µM |
| CSCC1CC(c2ccc(Cl)cc2)=NO1 (stereo not drawn) | > 100 µM |
| CC12NN=NC1C(=O)NC2=O (stereo not drawn) | > 100 µM |
| O=C(NN1C(=O)CSC12CCCCC2)c1[nH]c2ccc(F)cc2c1-c1ccccc1 | 37.5 µM |
| Cc1c(/C=N/NC(=S)Nc2ccccc2Cl)c(=O)n(-c2ccccc2)n1C | > 100 µM |
| CC(C)CC(CC1=CCC2CC1C2(C)C)C1=C(O)C(C)(C)C(=O)C(C)(C)C1=O (stereo not drawn) | > 100 µM |
| COC(=O)c1c2n(c3ccccc13)C[C@H]1OC(C)(C)O[C@@H]21 | > 100 µM |
